pIC50: −log10 of the molar value.
The listing below reports pIC50 for compounds tested on JMJD2C (Homo sapiens (Human), UniProt Q9H3R0).
Sequence (Q9H3R0 2-372): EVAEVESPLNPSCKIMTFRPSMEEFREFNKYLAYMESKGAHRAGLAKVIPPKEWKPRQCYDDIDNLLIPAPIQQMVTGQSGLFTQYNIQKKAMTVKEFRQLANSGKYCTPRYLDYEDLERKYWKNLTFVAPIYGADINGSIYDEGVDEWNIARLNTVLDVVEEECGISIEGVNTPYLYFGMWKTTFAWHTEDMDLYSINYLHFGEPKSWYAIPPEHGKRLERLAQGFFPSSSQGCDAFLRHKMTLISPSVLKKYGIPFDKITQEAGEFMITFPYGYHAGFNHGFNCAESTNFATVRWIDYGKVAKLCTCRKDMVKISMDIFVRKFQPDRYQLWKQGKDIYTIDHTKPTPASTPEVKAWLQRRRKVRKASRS

Compound | Tested on | pIC50
CCN1CCN(c2cccc(N(C)c3ccc(Oc4nc(O)c5ccncc5n4)cc3)c2)CC1 | JMJD2C (Homo sapiens (Human), UniProt Q9H3R0) | ≥ 7.00
CCN(c1ccc(Oc2nc(O)c3ccncc3n2)cc1)c1cccc(N2CCN(C)CC2)c1 | JMJD2C (Homo sapiens (Human), UniProt Q9H3R0) | ≥ 7.00
CC(C)c1ccc(N(c2ccc(Oc3nc(O)c4ccncc4n3)cc2)C2CCCNC2)cc1 (stereo not shown) | JMJD2C (Homo sapiens (Human), UniProt Q9H3R0) | ≥ 7.00
CC(C)c1ccc(N(c2ccc(Oc3nc(O)c4ccncc4n3)cc2)C2CCCC2)cc1 | JMJD2C (Homo sapiens (Human), UniProt Q9H3R0) | 5.00 to 6.00
